- experimental system: LXR beta (Homo sapiens, UniProt P55055)
- Sequence (P55055 155-460): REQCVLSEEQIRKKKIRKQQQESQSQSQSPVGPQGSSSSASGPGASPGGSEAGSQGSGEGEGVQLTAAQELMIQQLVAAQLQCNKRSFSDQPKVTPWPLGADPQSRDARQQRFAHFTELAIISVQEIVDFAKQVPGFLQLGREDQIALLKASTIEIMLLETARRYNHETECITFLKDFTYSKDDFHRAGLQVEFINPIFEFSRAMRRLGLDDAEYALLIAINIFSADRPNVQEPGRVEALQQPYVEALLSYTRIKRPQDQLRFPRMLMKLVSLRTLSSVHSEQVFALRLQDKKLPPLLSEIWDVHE
pIC50: −log10 of the molar value.

molecule | pIC50
Cc1cc(F)ccc1N1CCN(S(=O)(=O)c2cccc(Cl)c2)CC1C(=O)N1CCN(c2cc(Cl)ccc2Cl)CC1 (stereo not shown) [Example 4] | 6.14

###

- experimental system: LXR alpha (Homo sapiens)
- Sequence (Q13133 164-447): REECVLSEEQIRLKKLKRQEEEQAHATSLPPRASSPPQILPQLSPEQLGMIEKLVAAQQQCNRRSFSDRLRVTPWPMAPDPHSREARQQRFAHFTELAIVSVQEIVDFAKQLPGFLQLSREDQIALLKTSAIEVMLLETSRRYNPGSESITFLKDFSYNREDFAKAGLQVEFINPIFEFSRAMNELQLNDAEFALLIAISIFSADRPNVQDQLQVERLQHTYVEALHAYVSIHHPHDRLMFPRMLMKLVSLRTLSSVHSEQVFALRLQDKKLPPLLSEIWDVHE
pIC50: −log10 of the molar value.

compound | pIC50
Cc1ccc(Cl)cc1N1CCN(C(=O)[C@@H]2CN(S(C)(=O)=O)CC[C@@H]2c2ccc(F)cc2F)CC1 (single isomer, unassigned) [Example 87] | 4.81

meta.source: patent US8288541B2
